# Experimental target: Recombinant Human (rh) DPP1 (Homo sapiens, UniProt P53634)
# Sequence (P53634 25-463): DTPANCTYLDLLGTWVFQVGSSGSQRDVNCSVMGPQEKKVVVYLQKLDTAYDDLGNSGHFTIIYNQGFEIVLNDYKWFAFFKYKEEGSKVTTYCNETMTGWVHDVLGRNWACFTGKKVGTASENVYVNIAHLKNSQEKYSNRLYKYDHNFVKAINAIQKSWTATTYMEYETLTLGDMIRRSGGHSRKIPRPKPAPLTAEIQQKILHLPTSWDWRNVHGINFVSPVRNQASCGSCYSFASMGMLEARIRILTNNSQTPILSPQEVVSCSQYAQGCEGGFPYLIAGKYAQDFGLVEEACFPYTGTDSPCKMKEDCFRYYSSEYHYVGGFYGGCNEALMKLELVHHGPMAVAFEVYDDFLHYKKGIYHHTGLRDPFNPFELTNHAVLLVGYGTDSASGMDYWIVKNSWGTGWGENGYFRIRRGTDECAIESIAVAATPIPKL
# Protocol description: Fluorescence Assay for Recombinant Human (rh) DPP1
# Format: biochemical
# Test conditions: rhDPP1; substrate H-Gly-Arg-AMC; pH5.0; 30 min pre-incubation, 60 min reaction at 22° C.; highest concentration 10 μM; read-out: DPP1 activity, pIC50 (converted)
Where a name gives a salt, the structure may show the parent alone.
Reported endpoint: IC50 (nM)

The following molecules have reported results that may help.
N#C[C@H](Cc1ccc(-c2cccc(C(=O)Nc3nccs3)c2)cc1)NC(=O)[C@@H]1CCCCN1 [Example 84, Trifluoroacetate] : 25.1
N#C[C@H](Cc1ccc(-c2cccc(C(=O)N3CCCCC3)c2)cc1)NC(=O)[C@@H]1CCCCN1 [Example 83, Trifluoroacetate] : 200
N#CCCNC(=O)c1cccc(-c2ccc(C[C@@H](C#N)NC(=O)[C@@H]3CCCCN3)cc2)c1 [Example 85] : 126
N#Cc1cccc(-c2ccc(C[C@@H](C#N)NC(=O)[C@@H]3CCCCN3)cc2)c1 [Example 6, Trifluoroacetate] : 63.1
N#C[C@H](Cc1ccc(-c2cc3ccccc3[nH]2)cc1)NC(=O)[C@@H]1CCCCN1 [Example 14, Trifluoroacetate] : 7.94

(A) Cc1cc(O)ccc1-c1ccc(C[C@@H](C#N)NC(=O)[C@@H]2CCCCN2)cc1 [Example 11, Trifluoroacetate]
(B) N#C[C@H](Cc1ccc(-c2cccc(CC(N)=O)c2)cc1)NC(=O)[C@@H]1CCCCN1 [Example 86, Trifluoroacetate]
Two entries are listed, A and B . Which one carries the higher IC50? Kindly state the label of the option you pick. A
(A: 316 nM, B: 79.4 nM)
